Values compiled from patent US9862686B2.

Quick reference for pest or weed control at 100 ppm among some molecules
System: Mycosphaerella graminicola; Anamorph: Septoria tritici; Bayer Code SEPTTR
Assay: Fungicidal activity: leaf blotch of wheat, protectant and curative treatment of inoculated wheat plants
Assay type: in vivo
Conditions: Zymoseptoria tritici, 72 h; Three-Day Curative (3DC), 100 ppm, wheat plants (variety Yuma), percent control vs untreated inoculated plants; read-out: SEPTTR 100 PPM 3DC (% Disease Control rating)

>  <substance.smiles>
COc1ccc(S(=O)(=O)n2cc(F)c(NC(=S)Nc3ccccc3)nc2=O)cc1

>  <pest or weed control at 100 ppm>
51 to 75%

$$$$
>  <substance.smiles>
Cc1ccc(S(=O)(=O)n2cc(F)c(N)nc2=O)cc1

>  <pest or weed control at 100 ppm>
76 to 100%

$$$$
>  <substance.smiles>
CC(C)(C)C(=O)Nc1nc(=O)n(S(=O)(=O)c2ccc(Cl)cc2)cc1F

>  <pest or weed control at 100 ppm>
76 to 100%

$$$$
>  <substance.smiles>
CN(C)/C=N/c1nc(=O)n(S(=O)(=O)c2ccccc2)cc1F

>  <pest or weed control at 100 ppm>
76 to 100%

$$$$
>  <substance.smiles>
CS(=O)(=O)c1ccc(S(=O)(=O)n2cc(F)c(N)nc2=O)cc1

>  <pest or weed control at 100 ppm>
76 to 100%

$$$$
>  <substance.smiles>
O=C(Nc1nc(=O)n(S(=O)(=O)c2ccc(Cl)cc2)cc1F)c1ccc(Cl)cc1

>  <pest or weed control at 100 ppm>
0 to 25%

$$$$
>  <substance.smiles>
CCCS(=O)(=O)n1cc(F)c(/N=C/N(C)C)nc1=O

>  <pest or weed control at 100 ppm>
76 to 100%

$$$$
>  <substance.smiles>
CS(=O)(=O)n1cc(F)c(N)nc1=O

>  <pest or weed control at 100 ppm>
76 to 100%

$$$$
>  <substance.smiles>
Cc1ccc(S(=O)(=O)n2cc(F)c(/N=C/N(C)C)nc2=O)cc1

>  <pest or weed control at 100 ppm>
76 to 100%

$$$$
>  <substance.smiles>
COc1ccc(S(=O)(=O)n2cc(F)c(NC(=O)Nc3ccccc3)nc2=O)cc1

>  <pest or weed control at 100 ppm>
26 to 50%

$$$$

----------
Tested on: Mycosphaerella graminicola; Anamorph: Septoria tritici; Bayer Code SEPTTR
Test: Fungicidal activity: leaf blotch of wheat, protectant and curative treatment of inoculated wheat plants
Type: in vivo
Details: Zymoseptoria tritici, 24 h, read-out: SEPTTR 100 PPM 1DP (% Disease Control rating)
attribute.measured: pest or weed control at 100 ppm

>  <substance.smiles>
O=C(Nc1ccccc1)Nc1nc(=O)n(S(=O)(=O)c2ccccc2)cc1F

>  <attribute.measured>
pest or weed control at 100 ppm

>  <measured>
0 to 25%

$$$$
>  <substance.smiles>
O=c1nc(NC(=S)Nc2ccccc2)c(F)cn1S(=O)(=O)c1ccccc1

>  <attribute.measured>
pest or weed control at 100 ppm

>  <measured>
0 to 25%

$$$$
>  <substance.smiles>
O=C(Nc1nc(=O)n(S(=O)(=O)c2ccccc2)cc1F)c1ccccc1

>  <attribute.measured>
pest or weed control at 100 ppm

>  <measured>
76 to 100%

$$$$
>  <substance.smiles>
O=C(Nc1nc(=O)n(S(=O)(=O)c2ccccc2)cc1F)Oc1ccccc1

>  <attribute.measured>
pest or weed control at 100 ppm

>  <measured>
51 to 75%

$$$$
>  <substance.smiles>
COc1ccc(S(=O)(=O)n2cc(F)c(NC(=O)Oc3ccccc3)nc2=O)cc1

>  <attribute.measured>
pest or weed control at 100 ppm

>  <measured>
0 to 25%

$$$$
>  <substance.smiles>
O=C(Nc1nc(=O)n(S(=O)(=O)c2c(Cl)cccc2Cl)cc1F)Oc1ccccc1

>  <attribute.measured>
pest or weed control at 100 ppm

>  <measured>
76 to 100%

$$$$

----------
Quick reference for melting point among some compounds
attribute.measured: melting point

>  <substance.smiles>
CN(C)/C=N/c1nc(=O)n(S(C)(=O)=O)cc1F

>  <attribute.measured>
melting point

>  <measured>
133 to 134 °C

$$$$
>  <substance.smiles>
COc1ccc(S(=O)(=O)n2cc(F)c(/N=C/N(C)C)nc2=O)cc1

>  <attribute.measured>
melting point

>  <measured>
188 to 190 °C

$$$$
>  <substance.smiles>
CC(=O)Nc1nc(=O)n(S(=O)(=O)c2ccc(Cl)cc2)cc1F

>  <attribute.measured>
melting point

>  <measured>
159 to 162 °C

$$$$
>  <substance.smiles>
CN(C)/C=N/c1nc(=O)n(S(=O)(=O)c2cccs2)cc1F

>  <attribute.measured>
melting point

>  <measured>
205 to 207 °C

$$$$
>  <substance.smiles>
O=C(Nc1nc(=O)n(S(=O)(=O)c2ccccc2)cc1F)Oc1ccccc1

>  <attribute.measured>
melting point

>  <measured>
182 to 185 °C

$$$$
>  <substance.smiles>
Cc1ccc(C(=O)Nc2nc(=O)n(S(=O)(=O)c3ccc(Cl)cc3)cc2F)cc1

>  <attribute.measured>
melting point

>  <measured>
156 to 158 °C

$$$$
>  <substance.smiles>
Nc1nc(=O)n(S(=O)(=O)Cc2ccccc2)cc1F

>  <attribute.measured>
melting point

>  <measured>
172 to 174 °C

$$$$
>  <substance.smiles>
CS(=O)(=O)c1ccc(S(=O)(=O)n2cc(F)c(N)nc2=O)cc1

>  <attribute.measured>
melting point

>  <measured>
220 to 223 °C

$$$$
>  <substance.smiles>
Cn1cnc(S(=O)(=O)n2cc(F)c(N)nc2=O)c1

>  <attribute.measured>
melting point

>  <measured>
235 to 237 °C

$$$$
>  <substance.smiles>
Nc1nc(=O)n(S(=O)(=O)c2ccc(Cl)c(Cl)c2)cc1F

>  <attribute.measured>
melting point

>  <measured>
206 to 207 °C

$$$$
>  <substance.smiles>
CC(C)(C)C(=O)Nc1nc(=O)n(S(=O)(=O)c2ccc(Cl)cc2)cc1F

>  <attribute.measured>
melting point

>  <measured>
129 to 132 °C

$$$$
>  <substance.smiles>
Cc1ccc(CS(=O)(=O)n2cc(F)c(/N=C/N(C)C)nc2=O)cc1

>  <attribute.measured>
melting point

>  <measured>
150 to 152 °C

$$$$
>  <substance.smiles>
O=C(Nc1ccccc1)Nc1nc(=O)n(S(=O)(=O)c2c(Cl)cccc2Cl)cc1F

>  <attribute.measured>
melting point

>  <measured>
205 to 210 °C

$$$$
>  <substance.smiles>
COc1ccc(S(=O)(=O)n2cc(F)c(N)nc2=O)cc1

>  <attribute.measured>
melting point

>  <measured>
182.5 °C

$$$$
>  <substance.smiles>
Nc1nc(=O)n(S(=O)(=O)Cc2ccc(Br)cc2)cc1F

>  <attribute.measured>
melting point

>  <measured>
156 to 159 °C

$$$$
>  <substance.smiles>
Cc1ccc(CS(=O)(=O)n2cc(F)c(N)nc2=O)cc1

>  <attribute.measured>
melting point

>  <measured>
164 to 166 °C

$$$$
>  <substance.smiles>
Nc1nc(=O)n(S(=O)(=O)c2ccc(C(F)(F)F)cc2)cc1F

>  <attribute.measured>
melting point

>  <measured>
202 to 204 °C

$$$$
>  <substance.smiles>
COc1ccc(S(=O)(=O)n2cc(F)c(NC(=S)Nc3ccccc3)nc2=O)cc1

>  <attribute.measured>
melting point

>  <measured>
190 to 195 °C

$$$$
>  <substance.smiles>
O=c1nc(NC(=S)Nc2ccccc2)c(F)cn1S(=O)(=O)c1cccs1

>  <attribute.measured>
melting point

>  <measured>
182 to 185 °C

$$$$
>  <substance.smiles>
COc1ccc(S(=O)(=O)n2cc(F)c(NC(=O)Oc3ccccc3)nc2=O)cc1

>  <attribute.measured>
melting point

>  <measured>
138 to 142 °C

$$$$
>  <substance.smiles>
O=C(Nc1ccccc1)Nc1nc(=O)n(S(=O)(=O)c2ccc(Cl)cc2)cc1F

>  <attribute.measured>
melting point

>  <measured>
211 to 214 °C

$$$$
>  <substance.smiles>
CCCS(=O)(=O)n1cc(F)c(/N=C/N(C)C)nc1=O

>  <attribute.measured>
melting point

>  <measured>
144 to 145 °C

$$$$
>  <substance.smiles>
O=c1nc(NC(=S)Nc2ccccc2)c(F)cn1S(=O)(=O)c1ccccc1

>  <attribute.measured>
melting point

>  <measured>
205 to 208 °C

$$$$
>  <substance.smiles>
CN(C)/C=N/c1nc(=O)n(S(=O)(=O)Cc2ccc(Cl)cc2)cc1F

>  <attribute.measured>
melting point

>  <measured>
140 to 143 °C

$$$$
>  <substance.smiles>
O=C(Nc1ccccc1)Nc1nc(=O)n(S(=O)(=O)c2ccccc2)cc1F

>  <attribute.measured>
melting point

>  <measured>
210 to 214 °C

$$$$
>  <substance.smiles>
CN(C)/C=N/c1nc(=O)n(S(=O)(=O)c2ccccc2)cc1F

>  <attribute.measured>
melting point

>  <measured>
203 to 204 °C

$$$$
>  <substance.smiles>
CN(C)/C=N/c1nc(=O)n(S(=O)(=O)Cc2ccccc2)cc1F

>  <attribute.measured>
melting point

>  <measured>
152 to 154 °C

$$$$
>  <substance.smiles>
CN(C)/C=N/c1nc(=O)n(S(=O)(=O)c2ccc(Cl)cc2)cc1F

>  <attribute.measured>
melting point

>  <measured>
207 to 210 °C

$$$$
